tested on: NCI-H460 lung
Possible outcomes: Y (active), N (inactive)

| CHEMICAL STRING | TGT | ASSIGNED CATEGORY |
| --- | --- | --- |
| COc1ccc(/C=N/NC(=O)c2cccc3cc[nH]c23)cc1O | NCI-H460 lung | N |
| Cc1ccc(-n2c3nc(=O)[nH]c(=O)c-3cc3cc([N+](=O)[O-])ccc32)cc1 | NCI-H460 lung | N |
| Cc1csc(-c2nnc(Nc3ccc(Oc4ncccc4-c4ccnc(N)n4)cc3)c3ccccc23)c1 | NCI-H460 lung | Y |
| N#Cc1c[nH]n2c(N=Nc3ccc(Cl)cc3)c(O)nc12 | NCI-H460 lung | N |
| COc1ccc(CN2C(=O)/C(=C\c3cc(OC)c(OC)c(OC)c3)c3ccccc32)cc1 | NCI-H460 lung | N |
| Nc1cc(NN=C(c2ccc(O)cc2)c2ccc(O)cc2)c([N+](=O)[O-])cc1[N+](=O)[O-] | NCI-H460 lung | N |
| N[C@@H]1CCCC[C@@H]1N.O=P([O-])([O-])CN(CCN(CP(=O)([O-])[O-])CP(=O)([O-])[O-])CP(=O)([O-])[O-].[Pt+2] | NCI-H460 lung | N |
| COc1cccc(-c2nc(-c3ccc(NC(=O)OC(C)C)cc3)[nH]c2-c2ccnc(Br)c2)c1 | NCI-H460 lung | N |
